Test: risk score from prevalence in routine forensic samples and intoxication cases (G1, PSS, TSS)
Parameters: species or system human
Conditions: G1+G2+G3; higher value = greater toxicological risk
Please use true for G total (risk score) under 7 and false for everything else, ties included.

COMPOUND | ASSIGNED CLASS
COC(=O)C(NC(=O)c1cn(CCCCCF)c2ccccc12)C(C)(C)C (centres unmarked) [5F‐MDMB‐PICA] | false
COC(=O)C(NC(=O)c1cn(CCCCF)c2ccccc12)C(C)(C)C (centres unmarked) [4F‐MDMB‐BICA] | true
COC(=O)C(NC(=O)c1cn(CC2CCCCC2)c2ccccc12)C(C)(C)C (centres unmarked) [MDMB‐CHMICA] | true
CCCCCn1c2ccccc2c2c(=O)n(C(C)(C)c3ccccc3)ccc21 [Cumyl‐PEGACLONE] | true
CCCCCn1cc(C(=O)c2ccc(CC)c3ccccc23)c2ccccc21 [JWH‐210] | true
O=C(Oc1cccc2cccnc12)c1cn(CCCCCF)c2ccccc12 [5F‐PB‐22] | false
CC(C)(c1ccccc1)n1ccc2c(c1=O)c1ccccc1n2CCCCCF [5F‐Cumyl‐PEGACLONE] | true

Values were extracted from paper PMC12980303.
